systemUnderTest: EGFR on EGFR-overexpressing tumor cell line A431 (Homo sapiens, A431 cells, UniProt P00533)
experimentalProtocol: cell-based or functional assay
Provide the reported ADCC mean max killing of A431 cells (normalized to Cetuximab) of each item.
Please don't drop the unit; write it after the number.

Sample 60D01 IgG (antibody, synthetic bovine IGHV1-7 (VHBUL) scaffold, FR1 to FR3; ultralong CDR-H3 (stalk and knob) of clone 60D01 from immunised cattle; FR4 of the synthetic VH domain; human IgG1 heavy chain constant regions; as the light chain of m3: bovine VL (V30, VLλ30) deduced from PDB entries that share a CDR-identical light chain; human constant lambda region (CLλ); chimeric IgG1; also called chimeric bovine × …) VH: QVQLRESGPSLVKPSQTLSLTCTASGFSLSDKAVGWVRQAPGKALEWLGGIDTGGSTGYNPGLKSRLSITKDNSKSQVSLSVSSVTTEDSATYYCTTVHQETTKTASCPDGYAEHFGRGWGYWGCGGCDCCQENGAGGGWGNCGLYSTSYTYEHHIDAWGQGLLVTVSS VL: EAVLNQPSSVSGSLGQRVSITCSGSSSNVGNGYVSWYQLIPGSAPRTLIYGDTSRASGVPDRFSGSRSGNTATLTISSLQAEDEADYFCASAEDSSSNAVFGSGTTLTVL — what was its ADCC mean max killing of A431 cells (normalized to Cetuximab)?
76.3%

Quick one: 60E11 IgG (antibody, synthetic bovine IGHV1-7 (VHBUL) scaffold, FR1 to FR3; ultralong CDR-H3 (stalk and knob) of clone 60E11 from immunised cattle; FR4 of the synthetic VH domain; human IgG1 heavy chain constant regions; as the light chain of m3: bovine VL (V30, VLλ30) deduced from PDB entries that share a CDR-identical light chain; human constant lambda region (CLλ); chimeric IgG1; also called chimeric bovine × …) VH: QVQLRESGPSLVKPSQTLSLTCTASGFSLSDKAVGWVRQAPGKALEWLGGIDTGGSTGYNPGLKSRLSITKDNSKSQVSLSVSSVTTEDSATYYCTTVHQRTRKTCPDGWRDGSDCPYGHRCGDYDCCGYGCYDGRGTNRFTGVVESYTYEWYVDAWGQGLLVTVSS VL: EAVLNQPSSVSGSLGQRVSITCSGSSSNVGNGYVSWYQLIPGSAPRTLIYGDTSRASGVPDRFSGSRSGNTATLTISSLQAEDEADYFCASAEDSSSNAVFGSGTTLTVL
96%

Quick one: 60H05 IgG (antibody, synthetic bovine IGHV1-7 (VHBUL) scaffold, FR1 to FR3; ultralong CDR-H3 (stalk and knob) of clone 60H05 from immunised cattle; FR4 of the synthetic VH domain; human IgG1 heavy chain constant regions; as the light chain of m3: bovine VL (V30, VLλ30) deduced from PDB entries that share a CDR-identical light chain; human constant lambda region (CLλ); chimeric IgG1; also called chimeric bovine × …) VH: QVQLRESGPSLVKPSQTLSLTCTASGFSLSDKAVGWVRQAPGKALEWLGGIDTGGSTGYNPGLKSRLSITKDNSKSQVSLSVSSVTTEDSATYYCTTVHQKTNKLKSCPDGYTSGVECRFRGYTCANDGCWRVCSFTTCSGWMPASDTYRYEYHVDAWGQGLLVTVSS VL: EAVLNQPSSVSGSLGQRVSITCSGSSSNVGNGYVSWYQLIPGSAPRTLIYGDTSRASGVPDRFSGSRSGNTATLTISSLQAEDEADYFCASAEDSSSNAVFGSGTTLTVL
105%

Quick one: 60F06 IgG (antibody, synthetic bovine IGHV1-7 (VHBUL) scaffold, FR1 to FR3; ultralong CDR-H3 (stalk and knob) of clone 60F06 from immunised cattle; FR4 of the synthetic VH domain; human IgG1 heavy chain constant regions; as the light chain of m3: bovine VL (V30, VLλ30) deduced from PDB entries that share a CDR-identical light chain; human constant lambda region (CLλ); chimeric IgG1; also called chimeric bovine × …) VH: QVQLRESGPSLVKPSQTLSLTCTASGFSLSDKAVGWVRQAPGKALEWLGGIDTGGSTGYNPGLKSRLSITKDNSKSQVSLSVSSVTTEDSATYYCTTVHQRTEKIAKCPDGYSDARHCRDGCDCFGWDCFRSGAWAECYYEVYTYVHTYEHHVDAWGQGLLVTVSS VL: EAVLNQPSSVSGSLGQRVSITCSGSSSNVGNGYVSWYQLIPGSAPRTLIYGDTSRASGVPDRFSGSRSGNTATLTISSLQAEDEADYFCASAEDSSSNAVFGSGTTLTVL
108%

Quick one: 60C08 IgG (antibody, synthetic bovine IGHV1-7 (VHBUL) scaffold, FR1 to FR3; ultralong CDR-H3 (stalk and knob) of clone 60C08 from immunised cattle; FR4 of the synthetic VH domain; human IgG1 heavy chain constant regions; as the light chain of m3: bovine VL (V30, VLλ30) deduced from PDB entries that share a CDR-identical light chain; human constant lambda region (CLλ); chimeric IgG1; also called chimeric bovine × …) VH: QVQLRESGPSLVKPSQTLSLTCTASGFSLSDKAVGWVRQAPGKALEWLGGIDTGGSTGYNPGLKSRLSITKDNSKSQVSLSVSSVTTEDSATYYCTTVHQKTIETTQKTCPDGYFYADTCWAYSCRCRDCDCCRSSGGCTYSRDSHTATYEWHVDAWGQGLLVTVSS VL: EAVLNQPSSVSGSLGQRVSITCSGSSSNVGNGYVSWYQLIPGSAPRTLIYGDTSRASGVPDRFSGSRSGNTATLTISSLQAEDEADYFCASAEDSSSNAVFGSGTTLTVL
92.1%

Quick one: 60C03 IgG (antibody, synthetic bovine IGHV1-7 (VHBUL) scaffold, FR1 to FR3; ultralong CDR-H3 (stalk and knob) of clone 60C03 from immunised cattle; FR4 of the synthetic VH domain; human IgG1 heavy chain constant regions; bovine VL (V30, VLλ30) deduced from PDB entries that share a CDR-identical light chain; human constant lambda region (CLλ); chimeric IgG1; all clones share one fixed light chain and VH scaffold and …) VH: QVQLRESGPSLVKPSQTLSLTCTASGFSLSDKAVGWVRQAPGKALEWLGGIDTGGSTGYNPGLKSRLSITKDNSKSQVSLSVSSVTTEDSATYYCTTVHQETKKENSCPDGYTSGVECRFRGYTCANDGCWRVCSFTTCSGWMPASDTYRYEYHVDAWGQGLLVTVSS VL: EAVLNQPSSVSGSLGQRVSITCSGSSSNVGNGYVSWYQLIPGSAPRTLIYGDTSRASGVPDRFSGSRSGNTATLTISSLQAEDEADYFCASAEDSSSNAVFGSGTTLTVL
103%
